# reported Stability in Powder Concentrate (content by LCMSMS); entries follow
Assay type: physicochemical
Settings: stored at room temperature (21-25° C.), day 540
A number alone suffices; assume mg/g powder.

In [3]: df
Out[3]:
                                   compound  endpoint_result
0  CCCCCc1cc(O)c2c(c1)OC(C)(C)c1ccc(C)cc1-2 [CBN, cannabinol]            0.492
1  CCCCCc1cc(O)c2c(c1)OC(C)(C)[C@@H]1CCC(C)=C[C@@H]21 [D9 THC, delta-9-tetrahydrocannabinol, reference compound]             2.47
2  C=C(C)[C@@H]1CCC(C)=C[C@H]1c1c(O)cc(CCC)cc1O [CBDV, cannabidivarin]            0.052
3  C=C(C)[C@@H]1CCC(C)=C[C@H]1c1c(O)cc(CCCCC)cc1O [CBD, cannabidiol, reference compound]             5.81
4  CCCCCc1cc2c(c(O)c1C(=O)O)[C@@H]1C=C(C)CC[C@H]1C(C)(C)O2 [D9 THCA, delta-9-tetrahydrocannabinolic acid]            0.154
5  C=C(C)[C@@H]1CCC(C)=C[C@H]1c1c(O)cc(CCCCC)c(C(=O)O)c1O [CBDA, cannabidiolic acid]            0.425

Any idea what Stability in Powder Concentrate (content by LCMSMS) was measured for CCCCCc1cc(O)c2c(c1)OC1(C)CCC3C1C2C3(C)C (stereo not drawn) [CBL, cannabicyclol] ?
0.048

Any idea what Stability in Powder Concentrate (content by LCMSMS) was measured for Cc1c(C)c2c(c(C)c1O)CC[C@@](C)(CCC[C@H](C)CCC[C@H](C)CCCC(C)C)O2 [α-Tocopherol] ?
5.03

Any idea what Stability in Powder Concentrate (content by LCMSMS) was measured for CCCc1cc(O)c2c(c1)OC(C)(C)[C@@H]1CCC(C)=C[C@@H]21 [THCV, delta-9-tetrahydrocannabivarin] ?
0.664

---

Test: Stability of cannabinoid and Vitamin E components of Beverage 1 (AB White) stored at 8° C. and 21-25° C., LCMSMS over 570 days
Format: physicochemical
Details: beverage stored at 21-25° C., day 390
Experimental Endpoint: Stability in AB White, 21-25° C. (content by LCMSMS) (µg/mL)
A number alone suffices; assume µg/mL.

Known Stability in AB White, 21-25° C. (content by LCMSMS) results, listed for orientation:
In [3]: df
Out[3]:
                                   molecule  reading_unit  endpoint_result
0  CCCc1cc(O)c2c(c1)OC(C)(C)[C@@H]1CCC(C)=C[C@@H]21 [THCV, delta-9-tetrahydrocannabivarin]         µg/mL             3.40
1  CCCCCc1cc(O)c2c(c1)OC(C)(C)c1ccc(C)cc1-2         µg/mL             2.66
2  C=C(C)[C@@H]1CCC(C)=C[C@H]1c1c(O)cc(CCCCC)c(C(=O)O)c1O         µg/mL             1.67
3  C=C(C)[C@@H]1CCC(C)=C[C@H]1c1c(O)cc(CCC)cc1O         µg/mL            0.146
4  CCCCCc1cc(O)c2c(c1)OC(C)(C)[C@@H]1CCC(C)=C[C@@H]21 [D9 THC, delta-9-tetrahydrocannabinol, reference compound]         µg/mL             11.4
5  CCCCCc1cc(O)c2c(c1)OC(C)(CCC=C(C)C)C=C2 (stereo not drawn)         µg/mL            0.303
6  CCCCCc1cc(O)c2c(c1)OC1(C)CCC3C1C2C3(C)C (stereo not drawn)         µg/mL            0.518
7  CCCCCc1cc2c(c(O)c1C(=O)O)[C@@H]1C=C(C)CC[C@H]1C(C)(C)O2 [D9 THCA, delta-9-tetrahydrocannabinolic acid]         µg/mL            0.907

Now for a further molecule.
Any idea what Stability in AB White, 21-25° C. (content by LCMSMS) was measured for CCCCCc1cc(O)c(C/C=C(\C)CCC=C(C)C)c(O)c1 ?
4.70

---

# reported Stability of Cannabinoids in AB Red; entries follow
Test: Stability of cannabinoid and Vitamin E components of Beverage 2 (AB Red) stored at 8° C. and 21-25° C., LCMSMS over 570 days
Conditions: 8° C., 26 days
A number alone suffices; assume µg/mL.

                                   compound                experimental_endpoint  endpoint_result
0  CCCCCc1cc(O)c2c(c1)OC1(C)CCC3C1C2C3(C)C (stereo not drawn)  Stability of Cannabinoids in AB Red            0.502
1  CCCCCc1cc(O)c2c(c1)OC(C)(CCC=C(C)C)C=C2 (stereo not drawn)  Stability of Cannabinoids in AB Red            0.287

Any idea what Stability of Cannabinoids in AB Red was measured for CCCCCc1cc(O)c2c(c1)OC(C)(C)[C@@H]1CCC(C)=C[C@@H]21 [D9 THC, delta-9-tetrahydrocannabinol, reference compound] ?
12.7

Any idea what Stability of Cannabinoids in AB Red was measured for CCCCCc1cc(O)c2c(c1)OC(C)(C)c1ccc(C)cc1-2 ?
2.79

Any idea what Stability of Cannabinoids in AB Red was measured for CCCc1cc(O)c2c(c1)OC(C)(C)[C@@H]1CCC(C)=C[C@@H]21 [THCV, delta-9-tetrahydrocannabivarin] ?
3.13

Any idea what Stability of Cannabinoids in AB Red was measured for CCCCCc1cc(O)c(C/C=C(\C)CCC=C(C)C)c(O)c1 ?
4.68

Any idea what Stability of Cannabinoids in AB Red was measured for C=C(C)[C@@H]1CCC(C)=C[C@H]1c1c(O)cc(CCCCC)c(C(=O)O)c1O ?
1.63

Any idea what Stability of Cannabinoids in AB Red was measured for C=C(C)[C@@H]1CCC(C)=C[C@H]1c1c(O)cc(CCC)cc1O ?
0.199

Any idea what Stability of Cannabinoids in AB Red was measured for CCCCCc1cc2c(c(O)c1C(=O)O)[C@@H]1C=C(C)CC[C@H]1C(C)(C)O2 [D9 THCA, delta-9-tetrahydrocannabinolic acid] ?
1.33

---

Assay: Stability of cannabinoid and Vitamin E components of Beverage 1 (AB White) stored at 8° C. and 21-25° C., LCMSMS over 570 days
Assay type: physicochemical
Details: beverage stored at 8° C., day 11
Experimental Endpoint: Stability in AB White, 8° C. (content by LCMSMS) (µg/mL)
A number alone suffices; assume µg/mL.

Known Stability in AB White, 8° C. (content by LCMSMS) results, listed for orientation:
>>> print(df.to_string())
                                   compound  reading_unit  endpoint_result
0  CCCCCc1cc(O)c2c(c1)OC(C)(CCC=C(C)C)C=C2 (stereo not shown)         µg/mL            0.314
1  CCCCCc1cc(O)c2c(c1)OC1(C)CCC3C1C2C3(C)C (stereo not shown)         µg/mL            0.544
2  CCCCCc1cc(O)c2c(c1)OC(C)(C)[C@@H]1CCC(C)=C[C@@H]21 [D9 THC, delta-9-tetrahydrocannabinol, reference compound]         µg/mL            11.83

Any idea what Stability in AB White, 8° C. (content by LCMSMS) was measured for C=C(C)[C@@H]1CCC(C)=C[C@H]1c1c(O)cc(CCCCC)c(C(=O)O)c1O ?
1.70

---

Assay: Stability of cannabinoid and Vitamin E components of Beverage 2 (AB Red) stored at 8° C. and 21-25° C., LCMSMS over 570 days
Conditions: 21-25° C., 240 days
Experimental Endpoint: Stability of Cannabinoids in AB Red (µg/mL)
A number alone suffices; assume µg/mL.

Any idea what Stability of Cannabinoids in AB Red was measured for CCCCCc1cc(O)c2c(c1)OC(C)(C)[C@@H]1CCC(C)=C[C@@H]21 [D9 THC, delta-9-tetrahydrocannabinol, reference compound] ?
12.5

Any idea what Stability of Cannabinoids in AB Red was measured for CCCCCc1cc2c(c(O)c1C(=O)O)[C@@H]1C=C(C)CC[C@H]1C(C)(C)O2 [D9 THCA, delta-9-tetrahydrocannabinolic acid] ?
1.31

---

Experiment: Stability of cannabinoid and Vitamin E components of Beverage 1 (AB White) stored at 8° C. and 21-25° C., LCMSMS over 570 days
Type: physicochemical
Details: beverage stored at 8° C., day 480
Experimental Endpoint: Stability in AB White, 8° C. (content by LCMSMS) (µg/mL)
A number alone suffices; assume µg/mL.

Known Stability in AB White, 8° C. (content by LCMSMS) results, listed for orientation:
>>> df
                                   molecule  reading_unit  endpoint_result
0  CCCCCc1cc(O)c2c(c1)OC(C)(C)[C@@H]1CCC(C)=C[C@@H]21 [D9 THC, delta-9-tetrahydrocannabinol, reference compound]         µg/mL            11.60
1  CCCCCc1cc(O)c2c(c1)OC(C)(C)c1ccc(C)cc1-2         µg/mL             2.66
2  C=C(C)[C@@H]1CCC(C)=C[C@H]1c1c(O)cc(CCC)cc1O         µg/mL            0.143
3  CCCCCc1cc(O)c2c(c1)OC1(C)CCC3C1C2C3(C)C (stereo not shown)         µg/mL            0.521
4  C=C(C)[C@@H]1CCC(C)=C[C@H]1c1c(O)cc(CCCCC)cc1O [CBD, cannabidiol, reference compound]         µg/mL            27.13
5  CCCCCc1cc(O)c2c(c1)OC(C)(CCC=C(C)C)C=C2 (stereo not shown)         µg/mL            0.305

Any idea what Stability in AB White, 8° C. (content by LCMSMS) was measured for CCCCCc1cc2c(c(O)c1C(=O)O)[C@@H]1C=C(C)CC[C@H]1C(C)(C)O2 [D9 THCA, delta-9-tetrahydrocannabinolic acid] ?
0.905
